Test system: CHO
assay: % viability of CHO cells (MTT); higher = less toxic
condition: 20 µM; 48 h
Please go through the items and note down their % viability of CHO cells.
Numbers only, in %.

C[Si]1(C)CCN(Cc2cc(-c3ccc(Cl)cc3)n(-c3ccc(Cl)cc3)n2)CC1 : 71.6

Consider the following items and state reported % viability of CHO cells for each.
1. O=C(NCc1cccc2ccccc12)c1cccs1
2. CC(N)C12CC3CC(CC(C3)C1)C2 (stereo not given)
3. CCc1cc(CCCOc2c(C)cc(-c3noc(C(F)(F)F)n3)cc2C)on1
4. COc1cccc(N2CCN(C3=Nc4c(F)cccc4[C@H](CC(=O)O)N3c3cc(C(F)(F)F)ccc3OC)CC2)c1
5. Nc1ccc2oc(=O)ccc2c1I
6. O=C(/C=C\n1cnc(-c2cc(C(F)(F)F)cc(C(F)(F)F)c2)n1)NNc1ccccn1
7. CCc1cc(O)c(Oc2cccnc2N)cc1F
8. COc1ccc2c(c1)cc(CNC(=O)c1cc3ccccc3o1)n2CC(=O)O

134
102
110
116
60
91.3
62.9
111

Name the recorded % viability of CHO cells for O=C(Nc1cccc(C2=NCCN2)c1)c1ccc(-c2ccc(C(=O)Nc3cccc(C4=NCCN4)c3)cc2)cc1 . 96.3
